# assay info: Cytotoxicity against African green monkey Vero cells
# Type: cell-based
# stated conditions: chlorocebus sabaeus
// reported CC50 per item
assay metric: CC50 (µM)

compound structure string	unit name	value qualifier	experimental value
Nc1nc2c(c(=O)[nH]1)c1c(N)ncnc1n2[C@@H]1O[C@H](CO)[C@@H](O)[C@H]1O	µM	=	63.1
C[C@@]1(O)[C@H](O)[C@@H](CO)O[C@H]1n1c2ncnc(N)c2c2c(N)ncnc21	µM	>	100
Nc1ncnc2c1c1c(N)ncnc1n2[C@@H]1O[C@H](CO)[C@@H](O)[C@H]1O	µM	=	82.5
C[C@@]1(O)[C@H](O)[C@@H](CO)O[C@H]1n1c2ncnc(N)c2c2c(=O)[nH]c(N)nc21	µM	>	100

FYI, the data here is from ChEMBL document CHEMBL2380249.
